- system: Syntenin-1/Syndecan-2 (Homo sapiens)
- Sequence (O00560 whole entry): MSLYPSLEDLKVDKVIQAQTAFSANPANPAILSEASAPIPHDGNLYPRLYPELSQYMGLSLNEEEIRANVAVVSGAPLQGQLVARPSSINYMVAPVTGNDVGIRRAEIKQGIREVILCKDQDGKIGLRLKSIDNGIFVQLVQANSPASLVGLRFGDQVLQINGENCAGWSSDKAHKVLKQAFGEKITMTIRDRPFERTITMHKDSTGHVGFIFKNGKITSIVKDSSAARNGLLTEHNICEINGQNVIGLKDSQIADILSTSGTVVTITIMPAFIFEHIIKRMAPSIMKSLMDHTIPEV
- Sequence (P34741 whole entry, further chain): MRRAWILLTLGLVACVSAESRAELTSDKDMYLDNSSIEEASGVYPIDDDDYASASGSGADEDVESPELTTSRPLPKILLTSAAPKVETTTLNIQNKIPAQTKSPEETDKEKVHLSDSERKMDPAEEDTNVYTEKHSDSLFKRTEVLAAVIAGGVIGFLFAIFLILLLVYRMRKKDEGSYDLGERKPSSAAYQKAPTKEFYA
- assay.protocol: Inhibition of full length N-terminal GST-tagged human syntenin-1 expressed in Escherichia coli ER2566/syndecan2 (unknown origin) interaction incubated for 16 hrs by HTRF assay
IC50 less than 10 µM is y; IC50 greater than or equal to 10 µM is n.

INSERT INTO results (compound, label) VALUES
  ('CC(C)C[C@@H](C(=O)N[C@H](C(=O)O)C(C)C)N1Cc2ccccc2C1=O', 'n'),
  ('C[C@H](NC(=O)C(CSCc1ccccc1)N1Cc2ccccc2C1=O)C(=O)O (single isomer, unassigned)', 'n'),
  ('CC(C)[C@@H](C(=O)N[C@@H](C)C(=O)O)N1Cc2ccccc2C1=O', 'n'),
  ('CC(C)C[C@@H](C(=O)N[C@@H](C)C(=O)O)N1Cc2ccccc2C1=O', 'n');

## Input Determine if CC(C)[C@H](NC(=O)[C@H](C(C)C)N1Cc2ccccc2C1=O)C(=O)O shows IC50 strictly lower than 10 µM.
## Output n

## Input Determine if C[C@H](NC(=O)[C@H](Cc1ccc(-c2ccc3occc(=O)c3c2)cc1)N1Cc2ccccc2C1=O)C(=O)O shows IC50 strictly lower than 10 µM.
## Output y

## Input Determine if CC(C)[C@@H](C(=O)N[C@@H](Cc1ccccc1)C(=O)O)N1Cc2ccccc2C1=O shows IC50 strictly lower than 10 µM.
## Output n

## Input Determine if C[C@H](NC(=O)[C@H](Cc1ccc(Cl)cc1)N1Cc2ccccc2C1=O)C(=O)O shows IC50 strictly lower than 10 µM.
## Output n
